- Protocol summary: melting temperature; fluorescence melt of hairpins on a sequencing array, two-state fit, raised by 9.35 °C to match UV melts
- Protocol conditions: sodium 0.088 M
Mark rule met only when Tm stays strictly below 40 °C. Values equal to the cut-off are rule not met.

1) GTTAAGGGAAACCTTGAC ((.((((....)))).)) | rule met
2) GAGTACGAAAGTACCTC ((((((....))).))) | rule not met
3) GTCCACGAAAGTGTGGAC ((((((....)))..))) | rule not met
4) GTCAACGGAAACGTTAAC ((.((((....)))).)) | rule met
5) GCGGCGCTCCGC ((((....)))) | rule not met
6) GTGTGTGGAAACGTACAC ((((..(....)..)))) | rule not met
7) GTATACCGAAAGGTTTAC (((.(((....))).))) | rule not met
8) GCACTACGAAAGTATGC (((.(((....)))))) | rule not met
9) GTCATTGGAAACAGTGAC ((((.((....)).)))) | rule not met
10) GAGGCGGGAAACCGCTTC ((.((((....)))).)) | rule not met
